assay-target: human IR (HIR) (Homo sapiens)
assay-method-text: Human IR affinity (Kd)
Type: binding
measurement-parameters: Kd value expressed relative to that of human insulin in the same assay
Square brackets hold non-standard residues; d marks the D form. Ends that are not written are not given here. Dip = N[C@H](C(=O)O)C(c1ccccc1)c1ccccc1; Orn = NCCC[C@H](N)C(=O)O; Aib = CC(C)(N)C(=O)O
endpoint-label: Kd (HIR) rel. to HI (%)
API: value field is a number in %; no unit string.

Sure, the documented Kd (HIR) rel. to HI for Ac-SLEHEW[Aib]QIQCEVWGRPCPSEP[Dip]YGWFHEQLGPP (cysteine pairing not given here) [compound 872] is 6

Sure, the documented Kd (HIR) rel. to HI for Ac-SLEEEWAQIQCEVWG[Orn]GCPSESFYGWFERQLG (cysteine pairing not given here) [compound 805] is 24

Sure, the documented Kd (HIR) rel. to HI for Ac-SLEEEW[Aib]QIQCEVWGRGCPSESFYDWFERQL (cysteine pairing not given here) [compound 875] is 12

Sure, the documented Kd (HIR) rel. to HI for Ac-SLE-Aib-EW-Aib-QIQCEVWGRGC-pox-FYGWFE-Aib-QLG [compound 806] is 3

Sure, the documented Kd (HIR) rel. to HI for SLEHEWAQIQCEVWGRGCPSEPFYGWFERQLG [compound 800] is 07

Sure, the documented Kd (HIR) rel. to HI for Ac-SLEEEWAQIQCEVWGRGCPK(ε-carboxyfluorescein)ESFYGWFERQLG [compound 871] is 4

Sure, the documented Kd (HIR) rel. to HI for Ac-SLEEEW-Aib-QIQCEVWGRPCPSEP-Dip-YGWFHEQLGPP (Ac-SLEEEW[Aib]QIQCEVWGRPCPSEP[Dip]YGWFHEQLGPP; cysteine pairing not given here) [compound 873] is 20

Sure, the documented Kd (HIR) rel. to HI for Ac-SLE-Aib-EW-Aib-QIQCEVWGRPCPSEP-Dip-YGWFHEQLGPP [compound 874] is 8

Sure, the documented Kd (HIR) rel. to HI for SLEHEWAQIQCEVWGRGCPSEPFYGWFLAQLG [compound 799] is 4

Sure, the documented Kd (HIR) rel. to HI for Ac-SLEEEWAQIQCEVWGRGC-pox-FYGWFERQLG [compound 802] is 6
